Target: human FGFR1c + KLB receptor complex on HEK293 iLite FGF21 reporter cells (human, UniProt P11362 22-822; Q86Z14 1-1044)
Sequence (P11362 22-822, chain 1 of 2): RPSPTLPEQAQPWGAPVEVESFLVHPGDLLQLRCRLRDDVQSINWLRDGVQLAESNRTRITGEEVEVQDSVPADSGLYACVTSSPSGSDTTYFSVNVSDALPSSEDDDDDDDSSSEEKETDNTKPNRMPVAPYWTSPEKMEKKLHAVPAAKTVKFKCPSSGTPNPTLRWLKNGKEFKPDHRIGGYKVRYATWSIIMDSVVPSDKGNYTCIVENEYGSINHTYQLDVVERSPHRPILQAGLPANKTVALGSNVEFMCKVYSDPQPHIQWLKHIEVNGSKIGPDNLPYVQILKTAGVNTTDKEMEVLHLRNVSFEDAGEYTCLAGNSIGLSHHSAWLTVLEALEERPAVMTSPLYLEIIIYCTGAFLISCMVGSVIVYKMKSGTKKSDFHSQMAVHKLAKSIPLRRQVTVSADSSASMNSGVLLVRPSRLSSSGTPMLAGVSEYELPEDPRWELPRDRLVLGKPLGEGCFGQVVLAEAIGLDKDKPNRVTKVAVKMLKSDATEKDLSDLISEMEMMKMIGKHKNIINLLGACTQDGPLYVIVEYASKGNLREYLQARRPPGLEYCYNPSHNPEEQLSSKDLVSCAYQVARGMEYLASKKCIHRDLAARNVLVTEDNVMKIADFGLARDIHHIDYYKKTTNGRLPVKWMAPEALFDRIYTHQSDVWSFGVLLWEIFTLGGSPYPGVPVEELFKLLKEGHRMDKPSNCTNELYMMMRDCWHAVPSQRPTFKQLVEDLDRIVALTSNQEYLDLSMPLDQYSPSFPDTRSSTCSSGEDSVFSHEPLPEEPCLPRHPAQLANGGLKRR
Sequence (Q86Z14 whole entry, chain 2 of 2): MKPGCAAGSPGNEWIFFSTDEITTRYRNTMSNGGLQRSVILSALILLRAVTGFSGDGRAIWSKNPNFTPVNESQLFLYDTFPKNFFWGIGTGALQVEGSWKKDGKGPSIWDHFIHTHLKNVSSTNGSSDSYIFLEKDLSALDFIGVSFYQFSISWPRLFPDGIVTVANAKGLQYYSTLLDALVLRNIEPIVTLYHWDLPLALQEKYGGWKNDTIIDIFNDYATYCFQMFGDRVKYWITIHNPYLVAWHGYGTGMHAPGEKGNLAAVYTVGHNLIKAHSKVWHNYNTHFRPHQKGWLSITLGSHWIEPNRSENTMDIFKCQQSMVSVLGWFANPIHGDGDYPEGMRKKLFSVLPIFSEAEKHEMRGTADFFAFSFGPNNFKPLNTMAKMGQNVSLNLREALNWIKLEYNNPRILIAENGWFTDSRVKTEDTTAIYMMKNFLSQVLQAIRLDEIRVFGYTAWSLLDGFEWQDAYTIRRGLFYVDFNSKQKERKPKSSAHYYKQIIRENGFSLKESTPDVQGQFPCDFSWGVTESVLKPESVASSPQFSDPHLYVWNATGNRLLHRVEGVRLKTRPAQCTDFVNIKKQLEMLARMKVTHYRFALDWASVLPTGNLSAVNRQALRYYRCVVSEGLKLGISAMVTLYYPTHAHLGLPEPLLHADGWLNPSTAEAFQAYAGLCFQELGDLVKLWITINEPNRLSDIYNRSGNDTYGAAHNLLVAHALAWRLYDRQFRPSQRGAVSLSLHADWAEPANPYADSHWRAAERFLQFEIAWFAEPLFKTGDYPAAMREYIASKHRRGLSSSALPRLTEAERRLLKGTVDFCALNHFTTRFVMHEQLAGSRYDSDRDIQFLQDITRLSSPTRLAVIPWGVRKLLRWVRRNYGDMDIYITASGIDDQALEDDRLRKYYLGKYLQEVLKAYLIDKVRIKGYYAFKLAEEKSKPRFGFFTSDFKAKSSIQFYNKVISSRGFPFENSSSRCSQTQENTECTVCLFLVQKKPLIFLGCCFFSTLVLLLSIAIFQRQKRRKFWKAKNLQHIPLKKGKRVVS
Assay: cell-based or functional assay
readout: EC50 (nM)
Just the number in nM, nothing appended.

Below, each entry is followed by its recorded EC50 result.
{"binder": "Ab0299 (antibody, IgG4, V domains shown) VH: QVTLKESGPVLVKPTETLTLTCTVSGFSLNNARVGVSWIRQPPGKALEWLAHIFSNDEKSYSTSLKSRLTISKDTSKSQVVLTMTNMDPVDTATYYCARSVVTGGYYYEGMDVWGQGTTVTVSS VL: SYVLTQPPSVSVAPGQTARITCGGSNIGSESVHWYQQKPGQAPVLVVYDDSDRPSGIPERFSGSNSGNTATLTISRVEAGDEADYYCQVWTGNSDHVVFGGGTKLTVLG", "measured": 0.1}
{"binder": "Ab0350 (antibody, IgG4, V domains shown) VH: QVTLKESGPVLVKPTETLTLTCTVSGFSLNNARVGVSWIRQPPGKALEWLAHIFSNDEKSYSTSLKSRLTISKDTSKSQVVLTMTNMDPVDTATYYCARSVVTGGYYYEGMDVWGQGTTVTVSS VL: SYVLTQPPSVSVAPGQTARITCGGSNIGSESVHWYQQKPGQAPVLVVYEESDRPSGIPERFSGSNSGNTATLTISRVEAGDEADYYCQVWAGSSDHVVFGGGTKLTVLG", "measured": 1.46}
{"binder": "Ab0201 (antibody, IgG4, V domains shown, IgG4 PE) VH: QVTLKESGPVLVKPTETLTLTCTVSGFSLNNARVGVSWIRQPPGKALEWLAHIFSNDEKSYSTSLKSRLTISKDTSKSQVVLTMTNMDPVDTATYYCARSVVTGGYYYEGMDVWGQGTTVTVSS VL: SYVLTQPPSVSVAPGQTARITCGGSNIGSESVHWYQQKPGQAPVLVVYDDSDRPSGIPERFSGSNSGNTATLTISRVEAGDEADYYCQVWDGNSDHVVFGGGTKLTVLG", "measured": 0.05}
{"binder": "Ab0332 (antibody, IgG4, V domains shown, IgG4 PE) VH: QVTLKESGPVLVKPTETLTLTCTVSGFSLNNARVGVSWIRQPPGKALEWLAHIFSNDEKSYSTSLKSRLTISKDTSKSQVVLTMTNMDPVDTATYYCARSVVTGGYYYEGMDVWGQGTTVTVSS VL: SYVLTQPPSVSVAPGQTARITCGGSNIGSESVHWYQQKPGQAPVLVVYSESDRPSGIPERFSGSNSGNTATLTISRVEAGDEADYYCQVWEGASDHVVFGGGTKLTVLG", "measured": 0.05}
{"binder": "Ab0359 (antibody, IgG4, V domains shown) VH: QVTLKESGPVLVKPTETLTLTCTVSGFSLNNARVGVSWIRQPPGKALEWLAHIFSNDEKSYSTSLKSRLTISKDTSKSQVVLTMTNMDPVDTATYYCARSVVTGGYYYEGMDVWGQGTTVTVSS VL: SYVLTQPPSVSVAPGQTARITCGGSNIGSESVHWYQQKPGQAPVLVVYEHSDRPSGIPERFSGSNSGNTATLTISRVEAGDEADYYCQVWAGSSDHVVFGGGTKLTVLG", "measured": 2.53}
{"binder": "Ab0313 (antibody, IgG4, V domains shown) VH: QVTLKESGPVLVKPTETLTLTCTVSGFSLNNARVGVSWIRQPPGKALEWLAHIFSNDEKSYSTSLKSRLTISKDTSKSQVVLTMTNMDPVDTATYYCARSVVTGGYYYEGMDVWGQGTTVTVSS VL: SYVLTQPPSVSVAPGQTARITCGGNNIGSESVHWYQQKPGQAPVLVVYDDSDRPSGIPERFSGSNSGNTATLTISRVEAGDEADYYCQVWTGESDHVVFGGGTKLTVLG", "measured": 0.04}

INPUT: What value of EC50 has been reported for the following binder? Ab0355 (antibody, IgG4, V domains shown, IgG4 PE) VH: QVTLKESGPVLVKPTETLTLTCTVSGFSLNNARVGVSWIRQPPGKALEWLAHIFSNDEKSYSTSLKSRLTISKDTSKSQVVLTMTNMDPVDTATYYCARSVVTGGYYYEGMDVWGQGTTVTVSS VL: SYVLTQPPSVSVAPGQTARITCGGSNIGSESVHWYQQKPGQAPVLVVYEYSDRPSGIPERFSGSNSGNTATLTISRVEAGDEADYYCQVWEGSSDHVVFGGGTKLTVLG
OUTPUT: 0.07

INPUT: Please give the measured EC50 for this binder: Ab0319 (antibody, IgG4, V domains shown) VH: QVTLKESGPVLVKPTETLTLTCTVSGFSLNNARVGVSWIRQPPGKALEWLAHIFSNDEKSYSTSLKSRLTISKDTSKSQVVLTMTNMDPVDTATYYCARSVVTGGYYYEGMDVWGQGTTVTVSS VL: SYVLTQPPSVSVAPGQTARITCGGNNIGSESVHWYQQKPGQAPVLVVYYESDRPSGIPERFSGSNSGNTATLTISRVEAGDEADYYCQVWTGESDHVVFGGGTKLTVLG
OUTPUT: 0.3

INPUT: Query (binder): Ab0345 (antibody, IgG4, V domains shown, IgG4 PE) VH: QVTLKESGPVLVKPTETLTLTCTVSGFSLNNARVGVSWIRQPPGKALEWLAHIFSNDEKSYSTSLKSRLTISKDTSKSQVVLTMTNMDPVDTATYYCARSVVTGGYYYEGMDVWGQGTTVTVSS VL: SYVLTQPPSVSVAPGQTARITCGGSNIGSESVHWYQQKPGQAPVLVVYAASDRPSGIPERFSGSNSGNTATLTISRVEAGDEADYYCQVWEGASDHVVFGGGTKLTVLG ; field requested: EC50
OUTPUT: 0.07
